Just for reference, PubChem BioAssay AID1159580 is where these values come from.

Test: chemical genetic growth profiling, strain panel (AID 1159580);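 also: tested at 20 µM; growth read once vehicle control cultures reached saturation at 30 °C; lower values mean less growth of the strain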
Conditions: S. cerevisiae deletion strains, growth OD, locus YKL101W, strain HSL1, hits give low values
In all, about 5,500 compounds went through this assay and about 2,000 (36%) were called active. Inconclusive results (about 18%) are left out. The list shows a part of the results.
// classify: if (normalized growth < 0.9) Condition met else Condition not met

IN: Say whether its normalized growth is strictly beneath 0.9. Entry: Fc1cccc(Cl)c1CSc1nncn1-c1ccc(OCc2ccccc2)cc1
OUT: Condition not met

IN: Say whether its normalized growth is strictly beneath 0.9. Entry: O=C(c1ccc2ccccc2c1)N1CCN(c2ccnc3cc(Cl)ccc23)CC1
OUT: Condition not met

IN: Say whether its normalized growth is strictly beneath 0.9. Entry: CC(C)c1ccc(NC(=S)NC(=O)c2ccccc2)cc1
OUT: Condition not met

IN: Say whether its normalized growth is strictly beneath 0.9. Entry: Cc1c2c(=O)[nH]ncc2c(-c2ccccc2)n1-c1ccc([N+](=O)[O-])cc1
OUT: Condition not met

IN: Say whether its normalized growth is strictly beneath 0.9. Entry: CC(=O)Nc1ccc([N+](=O)[O-])cc1[N+](=O)[O-]
OUT: Condition met

IN: Say whether its normalized growth is strictly beneath 0.9. Entry: S=C(N/N=C\c1ccc(Cl)cc1)N/N=C\c1ccc(Cl)cc1
OUT: Condition met

IN: Say whether its normalized growth is strictly beneath 0.9. Entry: N#CCC(=O)NNC(=S)Nc1ccc(Cl)c(Cl)c1
OUT: Condition not met

IN: Say whether its normalized growth is strictly beneath 0.9. Entry: C/C(=C\c1ccc2c(c1)OCO2)[N+](=O)[O-]
OUT: Condition met

IN: Say whether its normalized growth is strictly beneath 0.9. Entry: CCCc1c(C(=O)NC2Cc3ccccc3C2)cnn1-c1ccccc1
OUT: Condition not met

IN: Say whether its normalized growth is strictly beneath 0.9. Entry: Cc1nn(Cc2ccc(C(=O)Sc3ccc(C(F)(F)F)cn3)o2)c(C)c1Br
OUT: Condition met

IN: Say whether its normalized growth is strictly beneath 0.9. Entry: O=[N+]([O-])c1cc(Br)cnc1Sc1nnc(SCC2CC2)s1
OUT: Condition met

IN: Say whether its normalized growth is strictly beneath 0.9. Entry: O=[N+]([O-])/C=C/c1ccc(F)cc1
OUT: Condition met

IN: Say whether its normalized growth is strictly beneath 0.9. Entry: O=C(c1ccccc1)c1cc(Cl)ccc1NC(=S)Nc1ccc(F)cc1
OUT: Condition not met
